Cited source: paper PMC12705613

This listing pairs compounds with measured MRT last.
# test_summary: in vivo
# study_conditions: WKY, rat, in vivo, po, 20 mg/kg, MRT0-t
Could you give me the number in h? Just the number is fine.

Reference set, count: 2
| structure | value_measured |
| --- | --- |
| CCCCc1nc(Cl)c(C=O)n1Cc1ccc(-c2ccccc2-c2nn[nH]n2)cc1 | 6.18 |
| CCCCc1nc(Cl)c(CO)n1Cc1ccc(-c2ccccc2-c2nn[nH]n2)cc1 | 5.89 |

Continue with the next compound.
Ask: Which MRT last is listed for CCCCc1nc(Cl)c(C(=O)O)n1Cc1ccc(-c2ccccc2-c2nnn[nH]2)cc1 ?
Result: 8.39

----------
# test_summary: in vivo
# study_conditions: SHR, rat, in vivo, po, 20 mg/kg, Tmax
# Experimental: The pharmacokinetic study was described as follows. The UHPLC-TQ-MS analysis was conducted on an LC-30 AD ultra high-performance liquid chromatograph (Shimadzu, Japan) connected to an AB 4500 (AB Sciex, United States) Triple Quadrupole Mass Spectrometer with an ESI source. […]
assay_endpoint: Tmax (h)
# output: bare number, implied unit h

| compound | value_measured |
| --- | --- |
| CCCCc1nc(Cl)c(C=O)n1Cc1ccc(-c2ccccc2-c2nn[nH]n2)cc1 [E-3179] | 1.83 |

Ask: I have this compound here, CCCCc1nc(Cl)c(CO)n1Cc1ccc(-c2ccccc2-c2nn[nH]n2)cc1 [Losartan, Losartan potassium] , and I need its recorded Tmax.
Result: 0.25

Ask: Please give the result for CCCCc1nc(Cl)c(C(=O)O)n1Cc1ccc(-c2ccccc2-c2nnn[nH]2)cc1 [E-3174] too.
Result: 4.75

----------
# test_summary: in vivo
# study_conditions: WKY, rat, in vivo, po, 20 mg/kg, t1/2z
assay_endpoint: half-life (h)
Number in h, nothing else.

| compound | unit_name | half-life |
| --- | --- | --- |
| CCCCc1nc(Cl)c(CO)n1Cc1ccc(-c2ccccc2-c2nn[nH]n2)cc1 [Losartan, Losartan potassium] | h | 13.6 |

Kindly consider the entry below.
Ask: Sample CCCCc1nc(Cl)c(C=O)n1Cc1ccc(-c2ccccc2-c2nn[nH]n2)cc1 [E-3179] — what was its half-life?
Result: 5.75

----------
# test_summary: in vivo
# study_conditions: SHR, rat, in vivo, po, 20 mg/kg, Cmax
assay_endpoint: Cmax (ng/mL)
Quick reminder: number only, in ng/mL, skip the unit.

| compound | value_measured |
| --- | --- |
| CCCCc1nc(Cl)c(C(=O)O)n1Cc1ccc(-c2ccccc2-c2nnn[nH]2)cc1 [E-3174] | 1800 |

# context switch: different compound, same Cmax
Ask: Can you share its Cmax? I mean this compound: CCCCc1nc(Cl)c(CO)n1Cc1ccc(-c2ccccc2-c2nn[nH]n2)cc1 [Losartan, Losartan potassium]
Result: 4000

----------
# test_summary: in vivo
# study_conditions: SHR, rat, in vivo, po, 20 mg/kg, AUC0-t
# Procedure: The pharmacokinetic study was described as follows. The UHPLC-TQ-MS analysis was conducted on an LC-30 AD ultra high-performance liquid chromatograph (Shimadzu, Japan) connected to an AB 4500 (AB Sciex, United States) Triple Quadrupole Mass Spectrometer with an ESI source. […]
assay_endpoint: AUC(0-t)
Write your answer as a measured quantity: the number, then the unit.

Ask: State the recorded AUC(0-t) for this entry: CCCCc1nc(Cl)c(C(=O)O)n1Cc1ccc(-c2ccccc2-c2nnn[nH]2)cc1
Result: 17600 ng·h/mL
